read-out: Vascular cell adhesion molecule 1 (VCAM1), VCAM1 (gene 7412); assay: BSK_LPS_VCAM1: BioMAP Diversity Plus: LPS Assay for Vascular cell adhesion molecule 1 (VCAM1) Biomarker Activity (AID 2283086); conditions: primary human HUVEC with PBMC; actives raise or lower the signal
Active and inactive are the calls of the source. Rule for the calls: active = hit-call score of the fitted dose curve at least 0.9, where 1 is the maximum; inactive = score below 0.9.
API: response.call in active, inactive

*Q* Answer briefly: the call reported for `COC(=O)c1ccc(I)cc1S(=O)(=O)NC(=O)Nc1nc(C)nc(OC)n1` in this assay.
*A* inactive

*Q* Could you kindly confirm the outcome this assay logged for `CCCOC(=O)c1ccc(C(=O)OCCC)nc1` ?
*A* inactive

*Q* For this compound, state the assay outcome: CC1(C)C(C=C(Cl)Cl)C1C(=O)OCc1cccc(Oc2ccccc2)c1 (stereo not drawn)
*A* inactive

*Q* Please share the test call associated with `C#C[C@]1(O)CC[C@H]2[C@@H]3CCC4=CC(=O)CC[C@@H]4[C@H]3CC[C@@]21CC` .
*A* inactive

*Q* Which outcome did this test record for the compound `C#CCOC(=O)[C@@H](C)Oc1ccc(Oc2ncc(Cl)cc2F)cc1` ?
*A* inactive

*Q* Fill in: this test's call for `CCCCCOC(=O)COc1cc(N2C(=O)C3=C(CCCC3)C2=O)c(F)cc1Cl` is ___
*A* active

*Q* Dear all, I need the recorded test outcome for `CCCN(CCC)C(=O)SCC` , thank you.
*A* inactive

*Q* Query: recorded result category for `CCNc1nc(N)nc(Cl)n1` in this test
*A* inactive

*Q* Call for entry `CCOC(=O)COc1cc(-n2ncc(C(F)(F)F)c(C)c2=O)c(F)cc1Cl` :
*A* inactive

*Q* Identify the outcome logged in this assay for the compound shown: `CC(C)CCCCCCc1ccc(O)cc1`
*A* active

*Q* Outcome? `O=C(Nc1ccc([N+](=O)[O-])cc1Cl)c1cc(Cl)ccc1O`
*A* active

*Q* GET /call?item= `COc1nc(C)nc(NC(=O)NS(=O)(=O)c2ccccc2OCCCl)n1` returns the recorded outcome of this test.
*A* inactive

*Q* Each compound tested received a call. Report the one for `COc1c(Cl)ccc(Cl)c1C(=O)O` .
*A* inactive

*Q* Entry CCOC(=O)C(C)Oc1ccc(Oc2nc3ccc(Cl)cc3o2)cc1 (stereo not drawn) : call = ?
*A* inactive

*Q* Would you mind telling me which call this test gave `CCN(CC)C(=O)c1cccc(C)c1` ?
*A* inactive

*Q* Check the results log: what was the call for `Cc1nn(C)c(Oc2ccccc2)c1C=NOCc1ccc(C(=O)OC(C)(C)C)cc1` ?
*A* active

*Q* Hello, I am checking results. What call was entered for `COC(=O)c1cccc(C)c1S(=O)(=O)NC(=O)Nc1nc(OCC(F)(F)F)nc(N(C)C)n1` ?
*A* inactive

*Q* Test call, this compound: `CC(=O)S[C@@H]1CC2=CC(=O)CC[C@]2(C)[C@H]2CC[C@@]3(C)[C@@H](CC[C@@]34CCC(=O)O4)[C@H]12`
*A* active

*Q* Hello, I am checking results. What call was entered for `c1ccc(Nc2ccccc2)cc1` ?
*A* inactive

*Q* State the result this test recorded for `COC(=O)c1c(Cl)nn(C)c1S(=O)(=O)NC(=O)Nc1nc(OC)cc(OC)n1` .
*A* inactive

*Q* Test call, this compound: CCC(O)=C1C(=O)CC(C(=O)O)CC1=O (stereo not drawn)
*A* inactive

*Q* Look up the recorded call for `Oc1ccc(C(c2ccc(O)cc2)C(Cl)(Cl)Cl)cc1` in this test.
*A* active

*Q* Recorded call for `COCCO` ?
*A* inactive

====

read-out: Insulin-like growth factor-binding protein 1 (IGFBP1), IGFBP1 (gene 3484); assay: LTEA_HepaRG_IGFBP1: Life Technologies and Expression Analysis (LTEA) Assay for Insulin-like growth factor-binding protein 1 (IGFBP1) using HepaRG (AID 2283508); settings: mRNA level, 48 h; actives raise or lower the signal
Active and inactive are the calls of the source. The calls were made as follows: active = hit-call score of the fitted dose curve at least 0.9, where 1 is the maximum; inactive = score below 0.9.
Just give me one of these, please: 1 (active), 0 (inactive)

*Q* # outcome recorded in this test, key = `O=C(Nc1ccc([N+](=O)[O-])cc1Cl)c1cc(Cl)ccc1O`
*A* 1

*Q* Which result was noted for this molecule in the test: `CC(C)(C)[C@@H](O)[C@@H](Cc1ccc(Cl)cc1)n1cncn1`
*A* 0

*Q* Each molecule tested received a call. Report the one for `CSC(=O)c1cccc2nnsc12` .
*A* 0

*Q* Recorded test call requested for `CC(C)CCCCCCc1ccc(O)cc1`
*A* 0

*Q* In this assay, the call recorded for `C#C[C@]1(O)CC[C@H]2[C@@H]3CCC4=CC(=O)CC[C@@H]4[C@H]3CC[C@@]21CC` was what?
*A* 0

*Q* Test call for this molecule, please: `COc1c(Cl)ccc(Cl)c1C(=O)O`
*A* 0

*Q* I'd appreciate the recorded outcome for CCCCC(CC)CN1C(=O)C2C3C=CC(C3)C2C1=O (stereo not drawn) from this test.
*A* 1

*Q* Check the results log: what was the call for `CCCN(CCC)c1c([N+](=O)[O-])cc(C(F)(F)F)c(N)c1[N+](=O)[O-]` ?
*A* 0

*Q* # lookup: test call for `CCNc1nc(N)nc(Cl)n1`
*A* 0

*Q* I'd appreciate the recorded outcome for `CCN(Cc1c(F)cccc1Cl)c1c([N+](=O)[O-])cc(C(F)(F)F)cc1[N+](=O)[O-]` from this test.
*A* 1

*Q* Tell me the assay call for `CCCOC(=O)c1ccc(C(=O)OCCC)nc1` please.
*A* 0

*Q* For this molecule, state the assay outcome: `O=C(c1ccccc1)C1CCCCC1`
*A* 0

*Q* So what was the verdict on CCCCOC(=O)C(C)Oc1ccc(Oc2ccc(C(F)(F)F)cn2)cc1 (stereo not drawn) in this test?
*A* 0

====

Biological target: Retinoic acid receptor RXR-alpha (Homo sapiens) (UniProt P19793)
Sequence (P19793 whole entry, looked up): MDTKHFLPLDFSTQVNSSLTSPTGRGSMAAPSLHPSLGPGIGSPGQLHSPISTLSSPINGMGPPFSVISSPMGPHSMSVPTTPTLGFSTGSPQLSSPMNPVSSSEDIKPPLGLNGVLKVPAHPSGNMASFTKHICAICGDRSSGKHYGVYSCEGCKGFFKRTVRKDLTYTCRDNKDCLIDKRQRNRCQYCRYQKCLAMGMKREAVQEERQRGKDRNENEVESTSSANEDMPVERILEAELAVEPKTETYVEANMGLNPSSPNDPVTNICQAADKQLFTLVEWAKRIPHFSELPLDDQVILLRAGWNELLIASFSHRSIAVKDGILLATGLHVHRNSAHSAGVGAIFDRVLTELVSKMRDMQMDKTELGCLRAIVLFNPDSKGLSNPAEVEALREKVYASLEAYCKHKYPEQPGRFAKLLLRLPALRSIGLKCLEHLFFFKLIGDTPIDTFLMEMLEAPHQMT
Assay: OT_NURR1_NURR1RXRa_1440: Odyssey Thera (OT) 24-hour HEK293T Protein Complementation Assay for Nurr1/retinoid X receptor (RXR) (AID 2283386)
Experimental: OT_NURR1_NURR1RXRa_1440 is a cell-based assay that uses HEK293T, a human kidney cell line, with measurements taken at 24 hours after chemical dosing in a 384-well plate.OT_NURR1_NURR1RXRa_1440 is one of one assay component(s) measured or calculated from the OT_NURR1_NURR1RXRa_1440 assay. […] This assay endpoint, OT_NURR1_NURR1RXRa_1440, was analyzed in the positive analysis fitting direction relative to DMSO as the negative control and baseline of activity. […]
Results filed as inconclusive are left out. Activity calls are given as the source filed them. Rule for the calls: active = hit-call score of the fitted dose curve at least 0.9, where 1 is the maximum; inconclusive = response in the unintended direction; inactive = score below 0.9.
// classify into active, inactive

*Q* What classification did `COC(=O)CSc1cc(N=c2sc(=O)n3n2CCCC3)c(F)cc1Cl` end up with in this test?
*A* inactive

*Q* Please indicate how the test categorized `OB(O)O` .
*A* inactive

*Q* Test call, this compound: `N#CSCSc1nc2ccccc2s1`
*A* active

*Q* What did this assay record as the result for `COc1c(Cl)ccc(Cl)c1C(=O)O` ?
*A* inactive

*Q* Look up the recorded call for CCOC(=O)C(C)Oc1ccc(Oc2nc3ccc(Cl)cc3o2)cc1 (configuration not stated) in this test.
*A* inactive

*Q* Field: outcome | Entry: `O=C(O)c1ccccc1`
*A* inactive

*Q* I would be grateful if you could indicate the recorded call for `c1ccc(Nc2ccccc2)cc1` .
*A* inactive

====

experiment: BSK_3C_Vis: BioMAP Diversity Plus: 3C Assay for Morphology Visualization (AID 2283025); settings: primary human endothelial cells (HUVEC);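 note: fitted both ways so gain or loss versus DMSO counts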
Active and inactive are the calls of the source. How the source made its calls: active means hit-call score of the fitted dose curve at least 0.9, where 1 is the maximum; inactive means score below 0.9.
Your answer must be one of the following: TRUE = active, FALSE = inactive

*Q* What did this assay record as the result for `O=C(O)c1ccccc1` ?
*A* FALSE

*Q* Please let me know the test result on file for CCOC(=O)C(C)Oc1ccc(Oc2cnc3cc(Cl)ccc3n2)cc1 (stereo not drawn) .
*A* FALSE

*Q* Given `S=C([S-])NCCNC(=S)[S-].[Mn+2]` , state the outcome it received in this test.
*A* TRUE

====

read-out: Alkaline Phosphatase, Placental (ALPP) gene, ALPP (gene 250); assay: LTEA_HepaRG_ALPP: Life Technologies and Expression Analysis (LTEA) Assay for Alkaline Phosphatase, Placental (ALPP) gene using HepaRG (AID 2283468); settings: mRNA level, 48 h; actives raise or lower the signal
Calls of active or inactive are those of the source. How the source made its calls: active means hit-call score of the fitted dose curve at least 0.9, where 1 is the maximum; inactive means score below 0.9.
Valid outcomes are listed here; reply with one: label 1 (active), label 0 (inactive)

*Q* # lookup: test call for `c1ccc2[nH]c(-c3cscn3)nc2c1`
*A* label 0

*Q* // param item: `O=C(c1ccc(O)cc1O)c1ccc(O)cc1O` ; yields the recorded call
*A* label 0

*Q* Assay outcome for `N#CSCSc1nc2ccccc2s1` : what was it?
*A* label 1

*Q* What did the test return for `O=C(O)c1ccccc1` ?
*A* label 0

*Q* Answer briefly: the call reported for CCCCC(CC)COC(=O)c1ccccc1C(=O)O (stereo unspecified) in this assay.
*A* label 0

*Q* Identify the outcome logged in this assay for the compound shown: `C[C@]12C[C@H](O)[C@H]3[C@@H](CCC4=CC(=O)CC[C@@]43C)[C@@H]1CC[C@@H]2C(=O)CO`
*A* label 0

*Q* Per the assay record, what outcome was assigned to CCCCC(CC)CN1C(=O)C2C3C=CC(C3)C2C1=O (stereo unspecified) ?
*A* label 1

*Q* Identify the outcome logged in this assay for the compound shown: `CN(C)C(=O)Nc1ccc(Cl)c(Cl)c1`
*A* label 0

*Q* Tell me the assay call for `CC(=O)[C@H]1CC[C@H]2[C@@H]3CCC4=CC(=O)CC[C@]4(C)[C@H]3CC[C@]12C` please.
*A* label 1

*Q* Which result was noted for this compound in the test: `N[C@@H](Cc1cc(I)c(Oc2ccc(O)c(I)c2)c(I)c1)C(=O)O`
*A* label 0

*Q* Recorded call for `COC(=O)c1ccccc1C(=O)O` ?
*A* label 0

*Q* Kindly provide the recorded test outcome for the following compound: `CCOC(=O)NCCOc1ccc(Oc2ccccc2)cc1`
*A* label 1

*Q* Outcome? `O=C(Nc1ccc([N+](=O)[O-])cc1Cl)c1cc(Cl)ccc1O`
*A* label 1

*Q* In this assay, the call recorded for `CCN(Cc1c(F)cccc1Cl)c1c([N+](=O)[O-])cc(C(F)(F)F)cc1[N+](=O)[O-]` was what?
*A* label 0

*Q* Each compound tested received a call. Report the one for `S=C([S-])NCCNC(=S)[S-].[Mn+2]` .
*A* label 0

*Q* Could you check what this test reported for `CCNc1nc(N)nc(Cl)n1` ?
*A* label 0

*Q* Per the records of this test, what outcome belongs to `Cc1nn(C)c(Oc2ccccc2)c1C=NOCc1ccc(C(=O)OC(C)(C)C)cc1` ?
*A* label 1

*Q* Hi team, can someone confirm the assay call for `CC(C)(c1ccc(O)cc1)c1ccc(O)cc1` ?
*A* label 0

*Q* Can you look up the reported call for `CC(C)CCCCCCc1ccc(O)cc1` for me?
*A* label 0

*Q* How was `C#CCOC(=O)[C@@H](C)Oc1ccc(Oc2ncc(Cl)cc2F)cc1` classified in this test?
*A* label 0

*Q* Per the records of this test, what outcome belongs to `CCSC(=O)N(CC(C)C)CC(C)C` ?
*A* label 0
